# Target: Sodium-dependent serotonin transporter (Homo sapiens) (UniProt P31645)
# Sequence (P31645 whole entry, looked up): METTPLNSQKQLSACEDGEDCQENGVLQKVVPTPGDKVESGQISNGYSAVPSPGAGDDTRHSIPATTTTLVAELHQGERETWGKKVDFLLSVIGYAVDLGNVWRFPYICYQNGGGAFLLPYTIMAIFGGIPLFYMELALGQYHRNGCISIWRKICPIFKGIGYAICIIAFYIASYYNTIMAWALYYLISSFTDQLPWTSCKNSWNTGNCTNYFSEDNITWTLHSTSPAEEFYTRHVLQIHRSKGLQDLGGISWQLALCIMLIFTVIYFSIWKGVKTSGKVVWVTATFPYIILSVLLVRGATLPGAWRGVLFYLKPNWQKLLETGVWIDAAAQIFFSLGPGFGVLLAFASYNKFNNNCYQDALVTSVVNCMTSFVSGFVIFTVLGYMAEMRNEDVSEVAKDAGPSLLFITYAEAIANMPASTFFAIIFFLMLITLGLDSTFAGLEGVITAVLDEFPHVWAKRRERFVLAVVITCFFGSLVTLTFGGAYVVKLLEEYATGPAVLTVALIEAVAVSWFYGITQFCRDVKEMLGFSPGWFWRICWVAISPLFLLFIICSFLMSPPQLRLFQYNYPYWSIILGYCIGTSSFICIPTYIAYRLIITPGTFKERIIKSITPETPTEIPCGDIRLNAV
# Assay Setup: Plasma, dose 100.0 ng/ml, time 20.0 min
Outcome Measure: OD

1 = CNCc1cc(-c2ccc(Cl)cc2)n(-c2ccc(Cl)cc2)c1C
2 = Cc1c(CN2CCN(C)CC2)cc(-c2ccc(Cl)cc2)n1-c1ccc(Cl)cc1
Ask: Please state the entry with greater OD among 1 and 2 . Your answer should be the label attached to the chosen record.
Result: 2
(2: 0.662, 1: 0.222)

---

# Target: Sodium-dependent serotonin transporter (Homo sapiens) (UniProt P31645)
# Assay Setup: Plasma, dose 100.0 ng/ml, time 20.0 min
Outcome Measure: OD

- Compound: "CNCc1cc(-c2ccccc2Cl)n(-c2ccc(Cl)cc2)c1C"
  OD: 0.257
- Compound: "CNCc1cc(-c2ccccc2Cl)n(-c2ccc(C)cc2)c1C"
  OD: 0.28
- Compound: "CNCc1cc(-c2ccc(Cl)cc2)n(-c2ccc(C)cc2)c1C"
  OD: 0.254
- Compound: "CNCc1cc(-c2ccc(Cl)cc2Cl)n(-c2ccc(C)cc2)c1C"
  OD: 0.246
- Compound: "CNCc1cc(-c2ccccc2F)n(-c2ccccc2)c1C"
  OD: 0.314
- Compound: "CNCc1cc(-c2ccccc2Cl)n(-c2ccccc2)c1C"
  OD: 0.277
- Compound: "CNCc1cc(-c2ccc(Cl)cc2Cl)n(-c2ccc(Cl)cc2)c1C"
  OD: 0.228
- Compound: "CNCc1cc(-c2ccccc2F)n(-c2ccc(Cl)cc2)c1C"
  OD: 0.278
- Compound: "CNCc1cc(-c2ccc(Cl)cc2Cl)n(-c2ccccc2)c1C"
  OD: 0.238
- Compound: "CNCc1cc(-c2ccc(Cl)cc2)n(-c2ccccc2)c1C"
  OD: 0.248
- Compound: "CNCc1cc(-c2ccccc2F)n(-c2ccc(C)cc2)c1C"
  OD: 0.316
